# Experimental System: human CD73 (Homo sapiens, UniProt P21589)
# Experimental Protocol: Inhibition of Ecto-5′-nucleotidase (CD73) activity in CHO-CD73 cells, phosphate release from AMP
# Experimental Setup: CHO-K1 cells stably transfected with human CD73; 25 μM AMP; 50 minutes, 37° C.; read-out: Potency: CD73 IC50
Quantity Kind: IC50

Tell me the measured IC50 of CC(c1ccc(C#N)cc1)n1nccc1-c1cc(Cl)c2nnn(-c3ccc4cn[nH]c4c3)c2c1 (stereo not drawn) , please.
100 to 1000 nM

// lookup IC50 for `N#Cc1ccc(Cn2nccc2-c2cc(F)c3nnn(-c4ccc5[nH]c(=O)[nH]c5c4)c3c2)nc1`
100 to 1000 nM

Any idea what IC50 was measured for `Fc1ccc(Cn2nccc2-c2cc(F)c3nnn(-c4ccc5nc[nH]c5c4)c3c2)nc1` ?
> 1000 nM

What value of IC50 has been reported for the following compound? `N#Cc1ccc(Cn2nccc2-c2cnc3c(NCCO)nn(-c4ccc5cn[nH]c5c4)c3c2)cc1`
> 1000 nM

I would be grateful if you could share the reported IC50 for `CCS(=O)(=O)c1cc(C#N)ccc1Cn1nccc1-c1cc(F)c2nnn(-c3ccc4[nH]c(=O)[nH]c4c3)c2c1` .
100 to 1000 nM

I have this compound here, `O=c1[nH]c2ccc(-n3nnc4c(Cl)cc(-c5ccnn5Cc5ccncc5Cl)cc43)cc2[nH]1` , and I need its recorded IC50.
100 to 1000 nM

Given `Cc1ccc(F)c(-n2nccc2-c2cc(F)c3nnn(-c4ccc5cn[nH]c5c4)c3c2)c1` , state its recorded IC50.
> 1000 nM

Item CC(Cn1nccc1-c1cc(F)c2nnn(-c3ccc4cn[nH]c4c3)c2c1)c1ccccc1 (stereo not drawn) has what recorded IC50?
> 1000 nM

Field request: IC50 | item: `CS(=O)(=O)Nc1cc(Cl)ccc1Cn1nccc1-c1cc(F)c2nnn(-c3ccc4[nH]c(=O)[nH]c4c3)c2c1`
> 1000 nM

Which IC50 reading was recorded for the compound `Fc1cccnc1Cn1nccc1-c1ccc2nnn(-c3ccc4cn[nH]c4c3)c2c1` ?
> 1000 nM

More entries:
Using the record for `CNC(=O)c1cc(C#N)ccc1Cn1nccc1-c1cc(F)c2nnn(-c3ccc4[nH]c(=O)[nH]c4c3)c2c1` , report its IC50.
100 to 1000 nM

Give its IC50 value. Item: `Cc1nn(-c2ccc3cn[nH]c3c2)c2cc(-c3ccnn3Cc3ccc(C#N)cc3)ncc12`
100 to 1000 nM

Sample `N#Cc1ccc(Cn2nccc2-c2cc(F)c3nnn(-c4ccc5[nH]c(=O)[nH]c5c4)c3c2)c(N2CCCC2=O)c1` — what was its IC50?
100 to 1000 nM

Looking for the measured IC50 of `N#Cc1ccc(Cn2nccc2-c2cnc3c(N)nn(-c4ccc5cn[nH]c5c4)c3c2)cc1` , can you help?
100 to 1000 nM

# query: IC50 of entry `N#Cc1ccc(Cn2nccc2-c2cc(F)c3nnn(-c4ccc5cn[nH]c5n4)c3c2)cc1`
< 100 nM

###

# Experimental System: human CD73 (Homo sapiens)
# Sequence (P21589 27-549): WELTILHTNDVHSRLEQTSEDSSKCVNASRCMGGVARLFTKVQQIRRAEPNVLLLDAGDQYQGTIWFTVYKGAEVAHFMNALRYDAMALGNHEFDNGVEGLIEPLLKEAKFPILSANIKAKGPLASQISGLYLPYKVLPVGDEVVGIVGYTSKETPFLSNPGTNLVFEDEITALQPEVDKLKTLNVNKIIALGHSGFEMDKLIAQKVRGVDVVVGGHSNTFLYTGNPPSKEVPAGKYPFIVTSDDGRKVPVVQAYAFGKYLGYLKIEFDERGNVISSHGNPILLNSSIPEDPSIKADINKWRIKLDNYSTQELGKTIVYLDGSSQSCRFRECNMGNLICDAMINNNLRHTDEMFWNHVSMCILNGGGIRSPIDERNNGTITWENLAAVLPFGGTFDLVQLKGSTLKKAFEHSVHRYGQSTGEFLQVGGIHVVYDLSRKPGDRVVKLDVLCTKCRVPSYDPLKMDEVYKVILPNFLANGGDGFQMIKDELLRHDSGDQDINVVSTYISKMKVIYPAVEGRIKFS
# Experimental Protocol: Inhibition of Ecto-5′-nucleotidase (CD73) activity in CHO-CD73 cells, phosphate release from AMP
# Experimental Setup: CHO-K1 cells stably transfected with human CD73; 25 μM AMP; 50 minutes, 37° C.; read-out: Potency: CD73 IC50
pIC50: −log10 of the molar value.
Overview of recorded pIC50 for various compounds

Use these answered entries as a reference point.
# query: pIC50 of entry Cc1cccc(-n2nccc2-c2cc3c(cc2F)nnn3-c2ccc3cn[nH]c3c2)c1 [Example 393]
6.00 to 7.00

Entry Cc1cnc(-c2cc(C#N)ccc2Cn2nccc2-c2cc(F)c3nnn(-c4ccc5[nH]c(=O)[nH]c5c4)c3c2)o1 [Example 321] has what pIC50?
6.00 to 7.00

Sample O=c1[nH]c2ccc(-n3nnc4c(Cl)cc(-c5ccnn5Cc5ccc(Cl)cc5Cl)cc43)cc2[nH]1 [Example 186] — what was its pIC50?
6.00 to 7.00

More entries:
Query (compound): N#Cc1ccc(Cn2nccc2-c2cc3c(cc2F)nnn3-c2ccc3cn[nH]c3c2)cc1 [Example 378] ; field requested: pIC50
> 7.00

Can you look up the measured pIC50 of O=c1[nH]c2ccc(-n3nnc4c(F)cc(-c5ccnn5Cc5ccc6[nH]cnc6c5)cc43)cc2[nH]1 [Example 257] for me?
< 6.00

Which pIC50 value is on record for CCc1nn(-c2ccc3cn[nH]c3c2)c2cc(-c3ccnn3Cc3ccc(C#N)cc3)cnc12 [Example 370] ?
< 6.00

GET /values?readout=pIC50&item= O=c1[nH]c2ccc(-n3nnc4c(F)cc(-c5ccnn5Cc5ccc(Cl)cc5)cc43)cc2[nH]1 [Example 231]
6.00 to 7.00

Item under review: Cc1cccc(-n2nccc2-c2cc(Cl)c3nnn(-c4ccc5[nH]c(=O)[nH]c5c4)c3c2)c1 [Example 217] . Reported pIC50?
6.00 to 7.00

Fill in: pIC50 of N#Cc1cc(F)c(Cn2nccc2-c2cc(Cl)c3nnn(-c4ccc5[nH]c(=O)[nH]c5c4)c3c2)c(F)c1 [Example 273] is ___
6.00 to 7.00

Please report the recorded pIC50 for Clc1ccc(Cn2nccc2-c2cc(Cl)c3nnn(-c4ccc5cn[nH]c5c4)c3c2)c(Br)c1 [Example 109] .
6.00 to 7.00

Entry CS(=O)(=O)c1cc(C#N)ccc1Cn1nccc1-c1cc(F)c2nnn(-c3ccc4[nH]c(=O)[nH]c4c3)c2c1 [Example 260] has what pIC50?
6.00 to 7.00
